Data export: pIC50 values recorded with UniProt Q9UM73.
Sequence (Q9UM73 19-1620, species assumed): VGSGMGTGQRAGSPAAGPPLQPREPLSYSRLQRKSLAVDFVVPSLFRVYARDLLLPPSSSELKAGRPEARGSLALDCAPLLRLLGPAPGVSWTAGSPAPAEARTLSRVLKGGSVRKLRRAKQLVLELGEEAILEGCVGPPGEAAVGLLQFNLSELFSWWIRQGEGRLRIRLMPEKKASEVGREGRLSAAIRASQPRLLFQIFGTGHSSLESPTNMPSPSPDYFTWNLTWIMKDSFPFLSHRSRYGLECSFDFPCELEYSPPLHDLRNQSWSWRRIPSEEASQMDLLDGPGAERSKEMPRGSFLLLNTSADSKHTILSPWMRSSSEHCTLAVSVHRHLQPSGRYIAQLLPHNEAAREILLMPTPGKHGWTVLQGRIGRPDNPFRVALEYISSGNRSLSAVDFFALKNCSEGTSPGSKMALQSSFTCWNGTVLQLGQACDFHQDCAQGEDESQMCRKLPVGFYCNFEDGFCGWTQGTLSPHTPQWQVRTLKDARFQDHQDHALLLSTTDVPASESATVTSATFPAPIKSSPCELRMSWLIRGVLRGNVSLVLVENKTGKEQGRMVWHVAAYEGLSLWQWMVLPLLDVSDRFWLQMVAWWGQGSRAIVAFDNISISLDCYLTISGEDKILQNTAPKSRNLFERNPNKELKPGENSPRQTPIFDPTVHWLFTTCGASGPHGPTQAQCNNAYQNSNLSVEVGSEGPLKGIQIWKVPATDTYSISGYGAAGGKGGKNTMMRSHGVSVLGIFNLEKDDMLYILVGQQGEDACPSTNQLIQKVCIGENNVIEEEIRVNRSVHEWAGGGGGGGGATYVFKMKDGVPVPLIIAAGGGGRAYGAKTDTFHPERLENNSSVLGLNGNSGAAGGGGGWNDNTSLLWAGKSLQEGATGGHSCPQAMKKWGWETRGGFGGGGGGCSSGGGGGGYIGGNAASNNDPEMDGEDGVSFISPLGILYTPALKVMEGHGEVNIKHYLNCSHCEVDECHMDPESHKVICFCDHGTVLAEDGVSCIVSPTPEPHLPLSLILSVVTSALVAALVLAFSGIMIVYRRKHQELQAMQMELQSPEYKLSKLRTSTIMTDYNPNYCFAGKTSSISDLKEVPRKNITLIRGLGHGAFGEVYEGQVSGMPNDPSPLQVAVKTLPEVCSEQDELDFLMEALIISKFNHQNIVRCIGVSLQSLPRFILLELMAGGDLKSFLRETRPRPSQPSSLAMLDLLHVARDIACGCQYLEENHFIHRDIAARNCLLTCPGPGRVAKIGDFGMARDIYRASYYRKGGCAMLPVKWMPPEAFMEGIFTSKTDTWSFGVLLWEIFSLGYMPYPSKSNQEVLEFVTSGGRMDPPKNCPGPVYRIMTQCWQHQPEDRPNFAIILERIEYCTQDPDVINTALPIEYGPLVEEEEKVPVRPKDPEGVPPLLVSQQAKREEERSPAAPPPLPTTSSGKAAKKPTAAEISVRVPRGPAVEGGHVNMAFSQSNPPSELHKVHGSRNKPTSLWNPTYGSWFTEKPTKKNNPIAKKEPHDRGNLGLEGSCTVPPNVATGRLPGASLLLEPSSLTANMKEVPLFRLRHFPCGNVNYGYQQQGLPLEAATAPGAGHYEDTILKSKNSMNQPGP
pIC50: −log10 of the molar value. Structures can show the parent of a compound that is named as a salt.

// worked examples, pIC50 included
C#CCN(C[C@@H]1CCCN1)S(=O)(=O)c1ccc2[nH]c(=O)c3[nH]cc(C(=O)OCCC)c3c2c1 [Compound 150, hydrochloride]; 6.00 to 7.00
CCCOC(=O)c1c[nH]c2c(=O)[nH]c3ccc(S(=O)(=O)N(CC(C)(C)NC)C4CC4)cc3c12 [Compound 141, hydrochloride]; 6.00 to 7.00

Now look at this entry.
Q. Query: pIC50; subject: CCCOC(=O)c1c[nH]c2c(=O)[nH]c3ccc(S(=O)(=O)N(C[C@@H]4CCCN4)C(C)C)cc3c12 [Compound 149, hydrochloride]
A. 6.00 to 7.00
